This section presents binders with their documented Binding Signal (fold over 6E7 Parental antibody) values.
- target_under_test: T1, human TREM2 (human, UniProt Q9NZC2 19-174, limits assumed)
- T1 construct: also called triggering receptor expressed on myeloid cells 2
- T1 sequence: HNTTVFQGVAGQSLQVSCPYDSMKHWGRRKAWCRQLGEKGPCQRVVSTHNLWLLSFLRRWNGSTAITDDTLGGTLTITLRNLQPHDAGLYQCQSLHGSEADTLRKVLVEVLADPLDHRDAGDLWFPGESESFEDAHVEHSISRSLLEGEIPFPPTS
- assay_details: 2nd screen 100 nM
Express your answer in fold, writing the number without its unit.

// solved cases for Binding Signal (fold over 6E7 Parental antibody) follow
[
  {
    "binder": "V47 (antibody, V domains shown) VH: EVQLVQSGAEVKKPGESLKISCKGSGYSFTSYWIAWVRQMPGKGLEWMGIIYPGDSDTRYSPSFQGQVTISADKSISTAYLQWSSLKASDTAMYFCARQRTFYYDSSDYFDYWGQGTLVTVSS VL: DIQMTQSPSSVSASVGDRVTITCRASQGISSWLAWYQQKPGKAPKLLIYAASSLQNGVPSRFSGSGSGTDFTLTISSLQPEDFATYFCQQADSFPMTFGQGTKLEIK",
    "recorded_number": 0.47
  },
  {
    "binder": "V23 (antibody, V domains shown) VH: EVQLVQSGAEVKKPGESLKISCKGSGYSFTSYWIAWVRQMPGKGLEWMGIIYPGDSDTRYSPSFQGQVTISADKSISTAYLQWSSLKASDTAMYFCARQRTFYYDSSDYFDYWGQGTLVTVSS VL: DIQMTQSPSSVSASVGDRVTITCRASQGISSWLAWYQQKPGKAPKLLIYAASSLQNGVPSRFSGSGSGTDFTLTISSLQPEDFATYFCQQADSFPLTFGQGTKLEIK",
    "recorded_number": 0.4
  },
  {
    "binder": "V43 (antibody, V domains shown) VH: EVQLVQSGAEVKKPGESLKISCKGSGYSFTSYWIAWVRQMPGKGLEWMGIIYPGDSGTRYSPSFQGQVTISADKSISTAYLQWSSLKASDTAMYFCARQRTFYYDSSDYFDYWGQGTLVTVSS VL: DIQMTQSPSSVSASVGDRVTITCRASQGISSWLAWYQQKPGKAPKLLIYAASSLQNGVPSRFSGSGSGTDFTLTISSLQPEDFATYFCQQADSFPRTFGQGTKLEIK",
    "recorded_number": 0.33
  }
]

# input for lookup
Input line: # input binder: V78 (antibody, V domains shown) VH: EVQLVQSGAEVKKPGESLKISCKGSGYRFTSYWIAWVRQMPGKGLEWMGIIYPGDSDTRYSPSFQGQVTISADKSISTAYLQWSSLKASDTAMYFCARQRTFYYDSSDYFDYWGQGTLVTVSS VL: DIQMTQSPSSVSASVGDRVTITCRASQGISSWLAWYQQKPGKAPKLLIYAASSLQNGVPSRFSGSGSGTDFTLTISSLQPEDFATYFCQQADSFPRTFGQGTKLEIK ; wanted: its Binding Signal (fold over 6E7 Parental antibody)
Output line: 1.11
